molecular target: Enoyl-acyl-carrier protein reductase (Plasmodium falciparum, UniProt Q965D5); test: Inhibition of Plasmodium falciparum enoyl-ACP reductase assessed as oxidation of NADH to NAD+ after 10 mins by spectrophotometric analysis; conditions: read-out: IC50
Sequence (Q965D5 whole entry): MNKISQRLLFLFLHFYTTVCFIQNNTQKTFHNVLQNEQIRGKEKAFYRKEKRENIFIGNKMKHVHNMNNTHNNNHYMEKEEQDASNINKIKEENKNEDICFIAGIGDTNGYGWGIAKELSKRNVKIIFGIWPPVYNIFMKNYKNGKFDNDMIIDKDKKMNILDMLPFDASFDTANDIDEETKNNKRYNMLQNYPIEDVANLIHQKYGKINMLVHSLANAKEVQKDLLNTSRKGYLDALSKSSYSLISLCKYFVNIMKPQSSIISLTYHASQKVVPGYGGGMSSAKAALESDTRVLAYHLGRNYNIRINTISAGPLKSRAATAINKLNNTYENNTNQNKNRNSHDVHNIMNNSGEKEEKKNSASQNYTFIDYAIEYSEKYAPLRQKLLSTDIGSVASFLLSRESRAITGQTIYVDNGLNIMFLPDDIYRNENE
pIC50: −log10 of the molar value.
The following molecules are listed with their measured pIC50 values.
readout-label: pIC50

molecule | value-measured
COc1ccc(-c2oc3c(Cc4c(O)c(OC)c(O)c5c(=O)c(OC)c(-c6ccc(OC)cc6)oc45)c(O)c(OC)c(O)c3c(=O)c2OC)cc1 [METHYLENEBISSANTIN] | 4.04
COc1cc(C(=O)O)ccc1O [VANILLIC ACID] | 3.04
